Test system: Human immunodeficiency virus 1
Test: Antiviral activity against HIV1 infected in human P4R5 cells assessed as reduction in viral infection preincubated with cells for 24 hrs followed by viral infection measured after 48 hrs by fluorescence based beta-galactosidase reporter gene assay
Format: functional, cell-based
Conditions: Human immunodeficiency virus 1, P4/R5
quantity-measured: EC50 (nM)
Numbers only here, please. The scale is nM.

Name the recorded EC50 for Cc1c(CC2CCCCC2)n(COCc2ccc(C(F)(F)F)cc2)c(=O)[nH]c1=O . 800

Query: EC50; subject: CCc1c(CC2CCCCC2)n(COCc2cccc(Cl)c2F)c(=O)n(O)c1=O 420

Requested field: EC50. Item: Cc1c(CC2CCCCC2)n(COCc2ccc(F)c(F)c2)c(=O)[nH]c1=O 210

Quick check: EC50 of CC(C)c1c(CC2CCCCC2)n(COCc2ccc(F)cc2)c(=O)[nH]c1=O ? 7.2

Fill in: EC50 of CCc1c(CC2CCCCC2)n(COCc2ccc(F)c(F)c2)c(=O)n(O)c1=O is ___ 4100

Look up EC50 for this compound: CCc1c(CC2CCCCC2)n(COCc2ccc(F)cc2)c(=O)[nH]c1=O 7.5

Would you kindly share the measured EC50 for CCc1c(CC2CCCCC2)n(COCc2ccc(F)c(F)c2)c(=O)[nH]c1=O ? 14

Look at this compound and give its reported EC50. CC(C)c1c(CC2CCCCC2)n(COCc2ccc(F)cc2)c(=O)n(O)c1=O 2400

Form field: reported EC50 of CCc1c(CC2CCCCC2)n(COCc2ccc(C(F)(F)F)cc2)c(=O)n(O)c1=O 2400

Dear colleague, I am looking for the recorded EC50 of the following compound: Cc1c(CC2CCCCC2)n(COCc2cccc(Cl)c2F)c(=O)[nH]c1=O 830

EC50 lookup needed for CC(C)c1c(CC2CCCCC2)n(COCc2ccccc2)c(=O)[nH]c1=O , thanks. 5.2

What EC50 value was documented for this compound, CCc1c(CC2CCCCC2)n(COCc2ccc(C(F)(F)F)cc2)c(=O)[nH]c1=O ? 39

Data request, read-out EC50, for Cc1c(CC2CCCCC2)n(COCCc2ccc(F)cc2)c(=O)[nH]c1=O 5300

For the compound CC(C)c1c(Cc2ccccc2)n(COCc2ccccc2)c(=O)[nH]c1=O , what EC50 is on record? 11

For the compound shown here, CC(C)c1c(CC2CCCCC2)n(COCc2ccccc2)c(=O)n(O)c1=O , give the reported EC50. 26

Which EC50 is reported for this compound? CCc1c(CC2CCCCC2)n(COCc2ccccc2)c(=O)n(O)c1=O 59

EC50 lookup needed for CCc1c(CC2CCCCC2)n(COCc2ccc(F)cc2)c(=O)n(O)c1=O , thanks. 39

What value of measured EC50 is listed for CCc1c(CC2CCCCC2)n(COCc2ccc(C)cc2)c(=O)[nH]c1=O ? 11

Quick one: EC50 of Cc1c(CC2CCCCC2)n(COCCc2ccc(F)cc2)c(=O)n(O)c1=O ? 10000

Dear colleague, I am looking for the recorded EC50 of the following compound: CCc1c(CC2CCCCC2)n(COCc2cccc(Cl)c2F)c(=O)[nH]c1=O 48

Any idea what its EC50 is? The compound is Cc1c(CC2CCCCC2)n(COCc2ccccc2)c(=O)[nH]c1=O 65

Recorded EC50 for CCc1c(CC2CCCCC2)n(COCc2ccc(C)cc2)c(=O)n(O)c1=O , please? 430

Looking for the measured EC50 of CCc1c(CC2CCCCC2)n(COCc2ccccc2)c(=O)[nH]c1=O , can you help? 6.2

###

Can you tell me CC50 for the items I'm about to list?
Assay: Cytotoxicity against human P4R5 cells
Format: cell-based
Write the value in µM as a bare number.

Fill in the blank: the reported CC50 of CC(C)c1c(CC2CCCCC2)n(COCc2ccccc2)c(=O)[nH]c1=O is ____. 23

May I ask what CC50 has been recorded for Cc1c(CC2CCCCC2)n(COCc2cccc(Cl)c2F)c(=O)[nH]c1=O ? 38

Field request: CC50 | item: CCc1c(CC2CCCCC2)n(COCc2cccc(Cl)c2F)c(=O)[nH]c1=O 32

###

Assay: Cytotoxicity against human P4R5 cells
Type: cell-based
quantity-measured: CC50

Recorded CC50 for Cc1c(CC2CCCCC2)n(COCc2ccccc2)c(=O)n(O)c1=O , please? > 100 µM

// query CC50 value for entry CC(C)c1c(CC2CCCCC2)n(COCc2ccc(F)cc2)c(=O)n(O)c1=O > 100 µM

Record request: CC50 value, item CCc1c(CC2CCCCC2)n(COCc2ccc(C(F)(F)F)cc2)c(=O)n(O)c1=O > 100 µM

// query CC50 value for entry CCc1c(CC2CCCCC2)n(COCc2ccccc2)c(=O)n(O)c1=O > 100 µM

Which measured CC50 value corresponds to CCc1c(CC2CCCCC2)n(COCc2ccccc2)c(=O)[nH]c1=O ? > 50 µM

Need CC50, item Cc1c(CC2CCCCC2)n(COCc2ccc(F)c(F)c2)c(=O)[nH]c1=O 65 µM

Consider the molecule CC(C)c1c(Cc2ccccc2)n(COCc2ccccc2)c(=O)[nH]c1=O and give its measured CC50. 58 µM

What CC50 value was documented for this molecule, Cc1c(CC2CCCCC2)n(COCc2ccccc2)c(=O)[nH]c1=O ? > 100 µM

# input molecule: CC(C)c1c(CC2CCCCC2)n(COCc2ccc(F)cc2)c(=O)[nH]c1=O ; wanted: its CC50 31 µM

Query (molecule): CCc1c(CC2CCCCC2)n(COCc2ccc(C)cc2)c(=O)[nH]c1=O ; field requested: CC50 30 µM

Which CC50 value is on record for Cc1c(CC2CCCCC2)n(COCc2ccc(F)c(F)c2)c(=O)n(O)c1=O ? > 100 µM

Quick check: CC50 of Cc1c(CC2CCCCC2)n(COCc2cccc(Cl)c2F)c(=O)n(O)c1=O ? > 100 µM

Suppose we examine the molecule Cc1c(CC2CCCCC2)n(COCc2ccc(C(F)(F)F)cc2)c(=O)[nH]c1=O ; what CC50 value has been reported? > 100 µM

Data request, read-out CC50, for CCc1c(CC2CCCCC2)n(COCc2ccc(F)cc2)c(=O)n(O)c1=O > 100 µM

What does the data say about its CC50? Entry: CCc1c(CC2CCCCC2)n(COCc2ccc(F)cc2)c(=O)[nH]c1=O 42 µM

Recorded CC50 of CCc1c(CC2CCCCC2)n(COCc2ccc(F)c(F)c2)c(=O)[nH]c1=O , please. 29 µM

// query CC50 value for entry Cc1c(CC2CCCCC2)n(COCCc2ccc(F)cc2)c(=O)[nH]c1=O 56 µM

Request the reported CC50 associated with CCc1c(CC2CCCCC2)n(COCc2cccc(Cl)c2F)c(=O)n(O)c1=O > 100 µM

Give the measured CC50 of CCc1c(CC2CCCCC2)n(COCc2ccc(F)c(F)c2)c(=O)n(O)c1=O . > 100 µM

If you can, please state the reported CC50 value of CC(C)c1c(CC2CCCCC2)n(COCc2ccccc2)c(=O)n(O)c1=O . > 100 µM

GET /values?readout=CC50&item= CCc1c(CC2CCCCC2)n(COCc2ccc(C(F)(F)F)cc2)c(=O)[nH]c1=O 28 µM

###

Would you kindly list log10 IC50 for each of these compounds?
Assay: Inhibition of HIV reverse transcriptase polymerase activity assessed as reduction in dNTP incorporation using 100 nucleotide DNA/18 nucleotide DNA as template/primer measured after 30 mins
Parameters: species or system Human immunodeficiency virus
Please keep in mind that the values are log10 of IC50 expressed in µM.

Would you kindly share the measured log10 IC50 for CC(C)c1c(CC2CCCCC2)n(COCc2ccccc2)c(=O)n(O)c1=O ? -0.35

Any idea what its log10 IC50 is? The compound is CCc1c(CC2CCCCC2)n(COCc2ccccc2)c(=O)n(O)c1=O 0.36

I am curious: what log10 IC50 value has been reported for Cc1c(CC2CCCCC2)n(COCc2ccc(F)c(F)c2)c(=O)[nH]c1=O ? 1.00

What measured log10 IC50 goes with Cc1c(CC2CCCCC2)n(COCc2ccc(C(F)(F)F)cc2)c(=O)n(O)c1=O ? 1.00

Please look up its log10 IC50: CCc1c(CC2CCCCC2)n(COCc2cccc(Cl)c2F)c(=O)n(O)c1=O 0.81

Bench note: what log10 IC50 did CCc1c(CC2CCCCC2)n(COCc2cccc(Cl)c2F)c(=O)[nH]c1=O show? 0.18

Looking for the measured log10 IC50 of CCc1c(CC2CCCCC2)n(COCc2ccc(F)cc2)c(=O)n(O)c1=O , can you help? 0.18

What value of log10 IC50 has been recorded for this entry: CC(C)c1c(CC2CCCCC2)n(COCc2ccc(F)cc2)c(=O)[nH]c1=O -0.52

If you can, please state the reported log10 IC50 value of CCc1c(CC2CCCCC2)n(COCc2ccc(C(F)(F)F)cc2)c(=O)[nH]c1=O . -0.09

// returns reported log10 IC50 for input CC(C)c1c(Cc2ccccc2)n(COCc2ccccc2)c(=O)[nH]c1=O -0.38

// lookup log10 IC50 for CC(C)c1c(CC2CCCCC2)n(COCc2ccccc2)c(=O)[nH]c1=O -1.07

Given CC(C)c1c(CC2CCCCC2)n(COCc2ccc(F)cc2)c(=O)n(O)c1=O , state its recorded log10 IC50. 1.00

Using the record for CCc1c(CC2CCCCC2)n(COCc2ccccc2)c(=O)[nH]c1=O , report its log10 IC50. -0.66

What value of log10 IC50 has been recorded for this entry: Cc1c(CC2CCCCC2)n(COCc2ccc(C(F)(F)F)cc2)c(=O)[nH]c1=O 1.00

Query (compound): CCc1c(CC2CCCCC2)n(COCc2ccc(F)c(F)c2)c(=O)[nH]c1=O ; field requested: log10 IC50 -0.09

// log10 IC50 lookup, key: Cc1c(CC2CCCCC2)n(COCc2ccccc2)c(=O)[nH]c1=O 0.83

Request the reported log10 IC50 associated with CCc1c(CC2CCCCC2)n(COCc2ccc(C)cc2)c(=O)n(O)c1=O 0.81

What does the record list as log10 IC50 for CCc1c(CC2CCCCC2)n(COCc2ccc(F)cc2)c(=O)[nH]c1=O ? -0.32

I have this compound here, CCc1c(CC2CCCCC2)n(COCc2ccc(C)cc2)c(=O)[nH]c1=O , and I need its recorded log10 IC50. -0.44

Which log10 IC50 is reported for this compound? Cc1c(CC2CCCCC2)n(COCc2cccc(Cl)c2F)c(=O)[nH]c1=O 1.00

Which log10 IC50 reading was recorded for the compound Cc1c(CC2CCCCC2)n(COCc2ccc(F)c(F)c2)c(=O)n(O)c1=O ? 1.00

Given CCc1c(CC2CCCCC2)n(COCc2ccc(C(F)(F)F)cc2)c(=O)n(O)c1=O , state its recorded log10 IC50. 0.85

Origin of values: ChEMBL document CHEMBL4004841
